Source: the nanobody polyreactivity screen of Harvey et al. (2022)

method: yeast display, Sf9 membrane polyspecificity reagent, FACS + sequencing; frameworks hold sequencing errors
resultType: polyreactivity (PSR sort gate)

QVQLVESGGGLVQAGGSLRLSCAASGIIFYYYGMGWYRQAPGKEREFVAAISTSGGNTYYADSVKGRFTISRDNAKNTVYLQMNSLKPEDTAVYYCAADDLAWGDAGVDYWGQGTEVTVSS low polyreactivity
QVQLVESGGGLVQAGGSLRLSCAASGSTFAFNAMGWYRQAPGKERELVAAIYSDGSTDYADSVKGRFSISRDNAKNTVYLQMNSLKPEDPAVYYCADDWGWRYVLPVGWFRYGYWGQGTQVTVSS low polyreactivity

###

method: yeast display, Sf9 membrane polyspecificity reagent, FACS + sequencing; frameworks hold sequencing errors
resultType: polyreactivity (PSR sort gate)

QVQLVESGGGLVQAGGSLRLTCAASGRTYNLYAMGWSRQAPGKERELVAAISSSTDSTYYAYSVKGRFTISRDNAKITVYLEMNSLKPEDTSVYYFAARRPSYPRYGYWGQGTQVTVSS high polyreactivity
QVQLVESGGGLGQAGGSLRLSCAASGRIFRYNAMGWYRQAPGKERELVAAITGSGGSTYYADSVKGRFTISRDNAKNTVYLQMNSLKPEDTAVYYCNTYTYYSRMDYWGQGTQVTVSS high polyreactivity
QVQLVESGGGLVQAGGSLRLSCAASGNTLGYYAMGWYRPAPGKERELVATISDDGTTYYADSVKGRFTISRDNAKNTVSLQMNSLKPEDTAVYYCATDGSAQYSMDYWGQGTQVTVSS low polyreactivity
QVQLVESGGGLVQAGGSLRLSCAASGSTYRTYAMGWYRPAPGKERELVAAISSSGGSTYYADSVKGRFTISRDNAKNTVYLQMNSLKPEYTAVYYCNAGRSHRPHYDYWGQGTQVTVSS high polyreactivity
QVQLVESGGRIVQAGGSLRLICASSGLIFYDNMGWYRQAPGKERELVAAISSSGGSRTYADSVKGRFTISRDNAKNTVYLQMNSLKPEDTAVYYCAVDKHYYGRYGVTYDYDYWGQGTQVTVSS low polyreactivity
QVQLVESGGGLVQPGVSLRLSCAASGRTSSSYTMGWYRQEPRKECELVAAITSGVRTYYADSVKGRFTISRDNAKNTVYLQMKSLKPEDTAVYYCNARYVPYTYCRKYFKPYDYWGLGTQVTVSS high polyreactivity
QVQLVESGGGLVQAGGRLRLSCAASGSTFQQYGMGWYRQAPGKERELVAAISGGVSTYYADSLKGLFTISRDHAKNTVYLQMYSLKPEDTAVYYCNADTSYSEWGSWYYEYDYWGQGTQVTVSS low polyreactivity
QVQLVESGGGLVQAGGSLRLSCAASGRIISPYAMGWYRQAPGKERELVAAISWRGSSTYYADSVKGRFTISRDNAKNTVYLQMNSLKPEDTAVYYCAAVYYRGIQSYDYWGQGTQVTVSS low polyreactivity
QVQLVESGGGLVQAGGSLRLSCAASGITFGPYAMGWYRQAPGKERELVATISSSGGSTYYADSVKGRFTISRDNAKNTVYLQMNSLKPEDTAVYYCNAGYAPYLGAYDYWGQGTQVTVSS low polyreactivity
QVQLVESGGGLFKAGGSLRLSCAASGFIFYFYNMAWYRQAPGKERELVAAISKSGTSTYYAASVKGRFTISRDNAKNTVYLQMNSLKPEDPAVYYCNKVRRANFDYWGQGTQVTVSS high polyreactivity

Identify measured polyreactivity (PSR sort gate) associated with `QVQLVESGGGLVQAGVSLRLSCAASGLTFGAYAMGWYRQAPGKERELVAAINVSGGSTYYADSVKGRFTISRDNAKNTVYLQMNSLKPEDTAVYYCNAGLVLGGIFIPLYDYWGQGTQVTVSS`
high polyreactivity

Identify measured polyreactivity (PSR sort gate) associated with `QVQLVESGGGLVQAGGSLRLSCAASGFIFPYYAMGWYRQAPGKERELVAAITRSGGRTYYADSVKGRFTISRDNAKNTVYLQMNSLKPEDTAVYYCAVRYIRYRNLKYDFWGQGTHVTVSS`
high polyreactivity

Identify measured polyreactivity (PSR sort gate) associated with `QVQLVESGGGLVQAGGSLRLSCAASGSTFPSNVMGWNRQAPVKERELVAAITWSGVRTYYADSVKGRFTISRDNAKNTVYLQMNSLKPEDTAVYYCAARSTYVRYDYWGQGTQVTVSS`
high polyreactivity
